- measured-target: T1, human GITR (amino acids M1-V241, NCBI Accession #NP_004186.1) expressed on cells (human, UniProt Q9Y5U5 26-241)
- T1 construct: also called hGITR; hGITR/HEK293-D9
- T1 sequence: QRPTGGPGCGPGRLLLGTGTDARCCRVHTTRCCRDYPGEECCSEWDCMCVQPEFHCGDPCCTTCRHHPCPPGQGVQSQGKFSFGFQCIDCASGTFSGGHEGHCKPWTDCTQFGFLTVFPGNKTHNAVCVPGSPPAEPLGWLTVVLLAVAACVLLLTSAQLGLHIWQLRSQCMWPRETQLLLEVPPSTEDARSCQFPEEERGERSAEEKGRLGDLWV
- assay-procedure: ECL cell binding, hGITR/HEK293-D9
Hi! Just check whether Average Signal (RLU) at 100 nM is below 6000 RLU. Below gives YES, equal or above gives NO.

Given H4H14469P (antibody, human IgG4, V domains shown, human IgG4 (H4H)) VH: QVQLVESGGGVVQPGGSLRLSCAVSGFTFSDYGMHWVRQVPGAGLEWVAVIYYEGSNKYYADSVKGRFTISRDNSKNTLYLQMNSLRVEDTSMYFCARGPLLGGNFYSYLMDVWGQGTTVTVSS VL: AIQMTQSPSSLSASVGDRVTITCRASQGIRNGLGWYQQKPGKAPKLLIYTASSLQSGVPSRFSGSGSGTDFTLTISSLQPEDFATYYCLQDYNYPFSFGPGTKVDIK , is recorded Average Signal (RLU) at 100 nM strictly lower than 6000 RLU?
YES

State whether 6000 RLU exceeds Average Signal (RLU) at 100 nM recorded for H4H14521P (antibody, human IgG4, V domains shown, human IgG4 (H4H)) VH: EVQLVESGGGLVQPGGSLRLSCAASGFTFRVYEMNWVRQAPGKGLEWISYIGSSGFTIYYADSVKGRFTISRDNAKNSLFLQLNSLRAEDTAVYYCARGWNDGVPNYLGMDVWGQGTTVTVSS VL: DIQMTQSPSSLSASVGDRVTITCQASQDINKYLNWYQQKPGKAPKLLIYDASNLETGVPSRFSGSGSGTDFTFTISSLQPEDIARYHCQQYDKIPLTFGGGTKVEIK .
NO

Confirm or reject: Average Signal (RLU) at 100 nM of H4H14476P (antibody, human IgG4, V domains shown, human IgG4 (H4H)) VH: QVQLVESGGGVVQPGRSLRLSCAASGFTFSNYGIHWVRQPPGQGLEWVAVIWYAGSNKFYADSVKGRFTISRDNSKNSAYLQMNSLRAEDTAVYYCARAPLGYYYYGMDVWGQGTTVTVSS VL: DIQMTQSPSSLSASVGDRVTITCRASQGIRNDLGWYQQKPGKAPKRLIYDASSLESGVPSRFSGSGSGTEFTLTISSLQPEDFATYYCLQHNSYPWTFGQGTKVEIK lies strictly below 6000 RLU
NO

Below 6000 RLU on Average Signal (RLU) at 100 nM? Entry H4H14470P (antibody, human IgG4, V domains shown, human IgG4 (H4H)) VH: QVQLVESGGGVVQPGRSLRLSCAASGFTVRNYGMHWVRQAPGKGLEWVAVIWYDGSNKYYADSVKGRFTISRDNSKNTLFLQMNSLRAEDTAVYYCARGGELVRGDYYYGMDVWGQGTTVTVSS VL: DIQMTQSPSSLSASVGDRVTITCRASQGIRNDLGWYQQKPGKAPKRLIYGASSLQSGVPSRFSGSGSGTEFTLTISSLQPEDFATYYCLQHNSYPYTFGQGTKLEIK
NO

Please indicate whether the reported Average Signal (RLU) at 100 nM of H4H14530P (antibody, human IgG4, V domains shown, human IgG4 (H4H)) VH: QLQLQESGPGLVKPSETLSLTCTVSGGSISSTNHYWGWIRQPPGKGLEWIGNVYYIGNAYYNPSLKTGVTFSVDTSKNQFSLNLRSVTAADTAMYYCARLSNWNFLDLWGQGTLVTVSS VL: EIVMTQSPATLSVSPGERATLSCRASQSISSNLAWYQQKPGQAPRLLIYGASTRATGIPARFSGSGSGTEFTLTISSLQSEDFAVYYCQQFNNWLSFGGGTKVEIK is strictly below 6000 RLU.
YES

# check: Average Signal (RLU) at 100 nM < 6000 RLU for H1H14491P (antibody, human IgG1, V domains shown, human IgG1 (H1H)) VH: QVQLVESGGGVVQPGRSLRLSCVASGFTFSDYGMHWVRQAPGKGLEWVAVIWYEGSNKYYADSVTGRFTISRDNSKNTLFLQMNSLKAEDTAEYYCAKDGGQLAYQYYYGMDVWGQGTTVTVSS VL: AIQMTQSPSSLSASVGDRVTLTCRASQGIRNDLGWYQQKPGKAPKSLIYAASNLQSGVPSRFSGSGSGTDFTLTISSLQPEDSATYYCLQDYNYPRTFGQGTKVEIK
NO

Strictly below 6000 RLU: is that where Average Signal (RLU) at 100 nM of H4H14475P (antibody, human IgG4, V domains shown, human IgG4 (H4H)) VH: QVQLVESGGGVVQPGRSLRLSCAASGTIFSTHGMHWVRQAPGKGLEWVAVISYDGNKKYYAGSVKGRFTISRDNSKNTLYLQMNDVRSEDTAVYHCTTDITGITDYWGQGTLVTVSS VL: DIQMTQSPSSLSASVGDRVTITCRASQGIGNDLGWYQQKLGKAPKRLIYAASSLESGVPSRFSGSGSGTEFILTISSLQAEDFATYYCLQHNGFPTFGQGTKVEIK sits?
NO

# strict comparison: is reported Average Signal (RLU) at 100 nM < 6000 RLU? input = H4H14516P (antibody, human IgG4, V domains shown, human IgG4 (H4H)) VH: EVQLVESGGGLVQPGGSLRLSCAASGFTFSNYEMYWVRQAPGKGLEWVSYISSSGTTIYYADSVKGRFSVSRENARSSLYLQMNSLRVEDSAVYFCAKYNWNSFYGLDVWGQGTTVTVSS VL: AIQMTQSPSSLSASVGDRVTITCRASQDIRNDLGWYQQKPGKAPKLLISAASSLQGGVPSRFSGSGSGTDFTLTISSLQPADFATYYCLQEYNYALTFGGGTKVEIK
NO
